Reference source: patent US11306078B2

- Subject Of Test: human chemokine receptor CXCR7 (Homo sapiens (Human), UniProt P25106)
- Sequence (P25106 whole entry): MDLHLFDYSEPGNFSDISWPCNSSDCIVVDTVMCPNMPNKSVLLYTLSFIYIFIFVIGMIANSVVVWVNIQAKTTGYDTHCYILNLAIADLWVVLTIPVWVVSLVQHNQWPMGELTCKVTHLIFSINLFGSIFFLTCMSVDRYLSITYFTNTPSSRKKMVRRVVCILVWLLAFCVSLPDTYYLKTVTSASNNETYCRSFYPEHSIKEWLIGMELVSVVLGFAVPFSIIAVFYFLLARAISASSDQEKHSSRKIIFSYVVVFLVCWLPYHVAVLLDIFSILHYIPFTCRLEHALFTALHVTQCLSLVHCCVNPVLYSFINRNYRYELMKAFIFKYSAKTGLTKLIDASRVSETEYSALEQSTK
- Experimental Protocol: Tango CXCR7-bla U2OS beta-arrestin recruitment assay (beta-lactamase reporter, FRET), antagonism of CXCL12/SDF1-α;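 note: compounds preincubated 15 min before CXCL12 addition, then 22 h at 37 °C, FRET emission ratio read with CCF4-AM substrate after 2 h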
- Type: cell-based
- Reported Conditions: antagonistic effect on CXCR7; Tango CXCR7-bla U2OS cells, CXCL12/SDF1-α at its EC80
The recorded IC50 of each item maps onto one of these classes: lower range: < 40 nM; middle range: ≥ 40 nM and < 400 nM; upper range: ≥ 400 nM

Would you mind sorting Cc1ccc(CCNC(=O)[C@@H]2CN(C3CCCCC3)CC[C@H]2NC(=O)c2cc(-c3ccc(F)cc3F)on2)cc1 (racemic) into the appropriate category?
lower range

Would you mind sorting CN(C)C(=O)[C@@H]1CN(C2CCC2(C)C)CC[C@H]1NC(=O)c1cc(-c2ccc(F)cc2F)on1 (stereo partly shown) into the appropriate category?
middle range

Would you mind sorting CC(C1CC1)N1CC[C@@H](NC(=O)c2cc(-c3ccc(F)cc3F)on2)[C@H](C(=O)N(C)C)C1 (stereo partly shown) [Example 2.013] into the appropriate category?
lower range

Would you mind sorting CC(CNC(=O)[C@@H]1CN(C2CCCCC2)CC[C@H]1NC(=O)c1cc(-c2ccc(F)cc2F)on1)c1ccccc1 (stereo partly shown) into the appropriate category?
upper range

Would you mind sorting Cc1nc(NC(=O)[C@@H]2CN(C3CCCCC3)CC[C@H]2NC(=O)c2cc(-c3ccc(F)cc3F)on2)sc1C (racemic) into the appropriate category?
upper range

Would you mind sorting CN(C)C(=O)[C@@H]1CN(C2CCCC2)CC[C@H]1NC(=O)c1cc(-c2ccc(F)cc2F)on1 [Example 2.019a] into the appropriate category?
middle range

Would you mind sorting N#Cc1ccc(-c2cc(C(=O)N[C@H]3CCN(CC4CC4)C[C@@H]3C(=O)NC3(c4ncccn4)CC3)no2)cc1 into the appropriate category?
middle range

Would you mind sorting O=C(N[C@@H]1CCN(CC2CC2)C[C@H]1C(=O)NC1(c2ccccn2)CC1)c1nnc(-c2ccc(F)cc2F)o1 (racemic) into the appropriate category?
middle range

Would you mind sorting CC(NC(=O)[C@@H]1CN(C2CCCCC2)CC[C@H]1NC(=O)c1cc(-c2ccc(F)cc2F)on1)c1ccncn1 (relative stereo) into the appropriate category?
middle range

Would you mind sorting O=C(N[C@@H]1CCN(CC2CC2)C[C@H]1C(=O)NC1(c2ncccn2)CC1)c1cc(-c2ccc(F)cn2)on1 (racemic) into the appropriate category?
upper range

Would you mind sorting O=C(N[C@@H]1CCN(CC2CC2)C[C@H]1C(=O)NC1(c2ncccn2)CC1)c1cc(-c2c(F)cc(F)cc2F)on1 (single isomer, unassigned) [Example 3.020a] into the appropriate category?
middle range

Would you mind sorting O=C(N[C@H]1CCN(CC2CC2)C[C@@H]1C(=O)NC1(c2ccccc2)CC1)c1cc(-c2ccc(F)cc2F)on1 into the appropriate category?
lower range

Would you mind sorting COCC(C)(C)NC(=O)[C@@H]1CN(CC2CC2)CC[C@H]1NC(=O)c1cn(-c2ccc(F)cc2F)nn1 into the appropriate category?
upper range

Would you mind sorting C[C@@H]1CCC[C@H]1N1CC[C@@H](NC(=O)c2cc(-c3c(F)cc(F)cc3F)on2)[C@H](C(=O)N2CCC2)C1 (relative stereo) into the appropriate category?
upper range

Would you mind sorting O=C(N[C@H]1CCN(CC2CC2)C[C@@H]1C(=O)NC1(c2ccccn2)CC1)c1nnc(-c2ccc(F)cc2F)o1 (single isomer, unassigned) [Example 3.016a] into the appropriate category?
middle range

Would you mind sorting CC(C)(CF)NC(=O)[C@@H]1CN(C2CCCCC2)CC[C@H]1NC(=O)c1cc(-c2ccc(F)cc2F)on1 (racemic) into the appropriate category?
upper range

Would you mind sorting Cc1cccc([C@H](C)NC(=O)[C@@H]2CN(C3CCCCC3)CC[C@H]2NC(=O)c2cc(-c3ccc(F)cc3F)on2)n1 (single isomer, unassigned) [Example 1.188.d] into the appropriate category?
middle range

Would you mind sorting O=C(N[C@H]1CCN(Cc2ccc(F)cc2)C[C@@H]1C(=O)NC1(c2ncccn2)CC1)c1cc(-c2ccc(F)cc2F)on1 into the appropriate category?
lower range

Would you mind sorting O=C(N[C@H]1CCN(CC2CC2)C[C@@H]1C(=O)NC1(c2ncccn2)CC1)c1cc(-c2ccc(Cl)cc2Cl)on1 (single isomer, unassigned) [Example 1.189a] into the appropriate category?
lower range

Would you mind sorting COCCC(C)(C)NC(=O)[C@H]1CN(C2CCCCC2)CC[C@@H]1NC(=O)c1cc(-c2ccc(F)cc2F)on1 into the appropriate category?
middle range

Would you mind sorting O=C(N[C@@H]1CCN(C2CCCC2)C[C@H]1C(=O)NC1(c2ccccn2)CC1)c1cc(-c2c(F)cc(F)cc2F)on1 into the appropriate category?
lower range

Would you mind sorting O=C(N[C@@H]1CCN(C2CCCCC2)C[C@H]1C(=O)NC(c1ccccn1)C(F)(F)F)c1cc(-c2ccc(F)cc2F)on1 (relative stereo) into the appropriate category?
upper range

Would you mind sorting COCC(C)(C)NC(=O)[C@@H]1CN(C2CCCC2)CC[C@H]1NC(=O)c1cc(-c2ccc(F)cc2F)no1 (racemic) into the appropriate category?
upper range

Would you mind sorting O=C(N[C@H]1CCN(C2CCCC2)C[C@@H]1C(=O)NC1(c2ccccn2)CC1)c1cc(-c2c(F)cc(F)cc2F)on1 (single isomer, unassigned) [Example 1.170a] into the appropriate category?
lower range
